Molecular target: IRAK4 (Homo sapiens, UniProt Q9NWZ3)
Construct: Degradation of IRAK4 in OCI-LY10 was quantitatively measured using Meso Scale Discovery technology; endogenous in cells; host or cells: OCI-LY10
Sequence (Q9NWZ3 whole entry): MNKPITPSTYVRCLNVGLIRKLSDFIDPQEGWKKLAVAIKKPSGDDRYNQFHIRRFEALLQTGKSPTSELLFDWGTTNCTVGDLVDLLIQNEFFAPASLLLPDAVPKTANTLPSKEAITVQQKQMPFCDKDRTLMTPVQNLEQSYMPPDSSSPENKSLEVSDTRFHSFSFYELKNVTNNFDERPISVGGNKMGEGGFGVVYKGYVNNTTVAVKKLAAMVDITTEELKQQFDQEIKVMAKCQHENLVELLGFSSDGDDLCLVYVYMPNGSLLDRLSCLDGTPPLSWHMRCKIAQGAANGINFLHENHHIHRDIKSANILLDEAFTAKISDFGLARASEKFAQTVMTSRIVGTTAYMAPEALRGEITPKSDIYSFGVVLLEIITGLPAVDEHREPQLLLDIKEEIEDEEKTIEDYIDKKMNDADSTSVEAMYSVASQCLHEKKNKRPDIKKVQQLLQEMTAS
Experiment: IRAK4 MSD Degradation in OCI-LY10
Type: cell-based
Conditions: OCI-LY10 cells, 24 hrs incubation, MSD; read-out: IRAK4 degradation in OCI-LY10 at 24 hrs: DC50
measurement name: DC50

# annotated cases, reported DC50 shown
compound	DC50
Cc1cccc(C(=O)Nc2cc3cn([C@H]4CC[C@H](CN5CC[C@@H](c6cccc7c6n(C)c(=O)n7C6CCC(=O)NC6=O)[C@@H](F)C5)CC4)nc3cc2C(C)(C)O)n1 (some centres unmarked) [I-644]	> 200 nM
Cn1c(=O)n(C2CCC(=O)NC2=O)c2cccc(C#CCN3CCN(C[C@H]4CC[C@H](n5cc(NC(=O)c6cnn7ccc(N8C9CCC8COC9)nc67)c(C(F)F)n5)CC4)CC3)c21 (some centres unmarked) [I-339]	> 200 nM
COc1cc2nn([C@H]3CC[C@H](CN4CCC5(CC4)CCN(c4ccc(C6CCC(=O)NC6=O)cc4)CC5)CC3)cc2cc1NC(=O)c1cncc(C#N)c1 (some centres unmarked) [I-88]	> 200 nM

Please state DC50 for every compound in the list that follows.
1. O=C1CCN(c2cccc(C#CCN3CCN(C[C@H]4CC[C@@H](n5cc(NC(=O)c6cnn7ccc(N8CC9CCC(C8)O9)nc67)c(C(F)F)n5)CC4)CC3)c2)C(=O)N1 [I-435]
2. CO[C@]1(CN2CCN(C[C@H]3CC[C@H](n4cc(NC(=O)c5cnn6ccc(N7C[C@H]8C[C@@H]7CO8)nc56)c(C(F)F)n4)CC3)CC2)C[C@@H](c2cccc3c2n(C)c(=O)n3C2CCC(=O)NC2=O)C1 (some centres unmarked) [I-729]

**A:**
["> 200 nM", "< 10 nM"]
